Cited source: ChEMBL document CHEMBL1129613

TARGET SYSTEM: Estrogen receptor (Rattus norvegicus) (UniProt P06211+Q62986)
ASSAY NAME: Relative binding affinity for estrogen receptor
Format: protein assay
MEASURED ENDPOINT: relative binding affinity (RBA)

C[C@]12CC[C@@H]3c4ccc(O)cc4CC[C@H]3[C@@H]1CC[C@@]2(O)CC(=O)NCCCCCCN	0.041
C[C@]12CC[C@@H]3c4ccc(O)cc4CC[C@H]3[C@@H]1CC[C@@]2(O)CC(=O)O	0.039
CC(C)(C)OC(=O)NCCCCCCNC(=O)C[C@]1(O)CC[C@H]2[C@@H]3CCc4cc(O)ccc4[C@H]3CC[C@@]21C	0.056
Cc1c2c(c(C)c3c1[nH]c1ccccc13)CN(C(=O)NCCCCCCNC(=O)C[C@]1(O)CC[C@H]3[C@@H]4CCc5cc(O)ccc5[C@H]4CC[C@@]31C)C=C2	0.132

a: CCOC(=O)C[C@]1(O)CC[C@H]2[C@@H]3CCc4cc(O)ccc4[C@H]3CC[C@@]21C
b: Cc1c2ccncc2c(C)c2c1[nH]c1ccc(C(=O)NCCCCCCNC(=O)C[C@]3(O)CC[C@H]4[C@@H]5CCc6cc(O)ccc6[C@H]5CC[C@@]43C)cc12
Returns: the label, a or b , whose recorded relative binding affinity (RBA) is the lower number. Kindly state the label of the option you pick.
b

----------
TARGET SYSTEM: DNA topoisomerase 2-alpha (Homo sapiens)
Sequence (P11388 whole entry): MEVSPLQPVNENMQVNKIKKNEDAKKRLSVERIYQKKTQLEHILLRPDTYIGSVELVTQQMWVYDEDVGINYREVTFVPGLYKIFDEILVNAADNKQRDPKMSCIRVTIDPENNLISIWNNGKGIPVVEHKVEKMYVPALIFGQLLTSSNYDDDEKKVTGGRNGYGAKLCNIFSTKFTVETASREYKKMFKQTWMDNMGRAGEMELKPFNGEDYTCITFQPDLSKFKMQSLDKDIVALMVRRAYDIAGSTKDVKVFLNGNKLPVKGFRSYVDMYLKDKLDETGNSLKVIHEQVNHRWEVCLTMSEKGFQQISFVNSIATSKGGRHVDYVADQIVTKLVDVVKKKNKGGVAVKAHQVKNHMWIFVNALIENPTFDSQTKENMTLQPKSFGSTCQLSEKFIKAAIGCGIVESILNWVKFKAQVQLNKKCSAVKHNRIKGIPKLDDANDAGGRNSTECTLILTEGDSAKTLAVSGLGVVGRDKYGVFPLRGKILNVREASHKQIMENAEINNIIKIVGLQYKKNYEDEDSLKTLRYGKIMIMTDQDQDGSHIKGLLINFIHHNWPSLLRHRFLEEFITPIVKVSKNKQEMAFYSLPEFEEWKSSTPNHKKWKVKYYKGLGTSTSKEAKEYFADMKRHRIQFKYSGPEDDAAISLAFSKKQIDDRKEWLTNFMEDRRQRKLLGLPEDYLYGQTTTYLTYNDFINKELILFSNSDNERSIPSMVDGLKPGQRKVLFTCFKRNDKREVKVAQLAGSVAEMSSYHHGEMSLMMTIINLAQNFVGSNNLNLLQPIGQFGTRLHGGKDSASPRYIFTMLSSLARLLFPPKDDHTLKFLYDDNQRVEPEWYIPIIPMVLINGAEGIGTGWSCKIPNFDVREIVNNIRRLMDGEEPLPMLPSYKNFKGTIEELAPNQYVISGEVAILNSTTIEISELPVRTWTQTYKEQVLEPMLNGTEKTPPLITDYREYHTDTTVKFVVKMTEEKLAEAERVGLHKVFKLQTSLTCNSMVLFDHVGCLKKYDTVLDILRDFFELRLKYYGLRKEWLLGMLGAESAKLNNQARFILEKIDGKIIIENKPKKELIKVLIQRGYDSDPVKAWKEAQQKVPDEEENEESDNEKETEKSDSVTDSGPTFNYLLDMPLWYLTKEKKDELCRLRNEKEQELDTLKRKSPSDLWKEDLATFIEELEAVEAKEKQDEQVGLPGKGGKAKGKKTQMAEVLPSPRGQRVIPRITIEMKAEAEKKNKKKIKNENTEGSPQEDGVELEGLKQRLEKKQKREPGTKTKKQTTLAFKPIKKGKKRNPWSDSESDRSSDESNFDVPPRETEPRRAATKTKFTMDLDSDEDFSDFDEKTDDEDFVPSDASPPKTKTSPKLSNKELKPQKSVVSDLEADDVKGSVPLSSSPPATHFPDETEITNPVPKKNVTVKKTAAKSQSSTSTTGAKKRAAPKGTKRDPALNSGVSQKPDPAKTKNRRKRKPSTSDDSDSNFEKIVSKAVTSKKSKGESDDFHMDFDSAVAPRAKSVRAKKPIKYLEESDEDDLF
MEASURED ENDPOINT: IC50 (µM)
Please state the figure in µM; there is no need to write the unit.

DNA topoisomerase 2-alpha (Homo sapiens) / IC50 / Cc1c2c(c(C)c3c1[nH]c1ccccc13)CN(C(=O)NCCCCCCNC(=O)C[C@]1(O)CC[C@H]3[C@@H]4CCc5cc(O)ccc5[C@H]4CC[C@@]31C)C=C2 : value?
24.1

----------
GI50 overview
Tested on: SN12C
ASSAY NAME: Cytotoxic effect on growth inhibition of renal cancer SN12C cells
Format: functional
TEST CONTEXT: Homo sapiens
Please state the figure in µM; there is no need to write the unit.

Cc1c2c(c(C)c3c1[nH]c1ccccc13)CN(C(=O)NCCCCCCNC(=O)C[C@]1(O)CC[C@H]3[C@@H]4CCc5cc(O)ccc5[C@H]4CC[C@@]31C)C=C2	9.56

Now consider the entry below.
Entry Cc1c2ccncc2c(C)c2c1[nH]c1ccccc12 [ELLIPTECINE] : reported GI50 = ?
0.73
